I'd be grateful if you could share measured Ki for these entries.
# Target entity: UniProt:Q8QGU2
# Sequence (Q8QGU2 whole entry): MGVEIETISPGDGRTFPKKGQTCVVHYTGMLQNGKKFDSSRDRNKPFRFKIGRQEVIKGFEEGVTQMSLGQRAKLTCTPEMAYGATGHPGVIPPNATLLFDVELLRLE
Give bare numbers, in nM.

Worked set:
CCC(C)(C)C(=O)C(=O)N1CCCCC1C(=O)OCCC(c1ccccc1)c1ccccc1 (stereo not given) = 8.3
COc1ccc(CCCCOC(=O)C2CCCCN2C(=O)C(=O)C(C)(C)C)cc1 (stereo not given) = 24
CCC(C)(C)C(=O)C(=O)N1CCCCC1C(=O)OC(CCCc1ccccc1)CCc1ccc(OC)cc1 (stereo not given) = 15

Ask: Form entry - test system: UniProt:Q8QGU2; read-out: Ki; compound: CCC(C)(C)C(=O)C(=O)N1CCCCC1C(=O)OCCCc1cc(OC)c(OC)c(OC)c1 (stereo not given)
Reply: 25

* * *

# Method: Ability to promote neurite outgrowth against freshly isolated sensory neuronal cultures
# Assay type: functional
# Study conditions: Gallus gallus; read-out: ED50 (the source's name)
Quantity kind: pEC50
One number for each entry, as −log10 of the molar value.

CC(C)(C)C(=O)C(=O)N1CCCCC1C(=O)OCCCc1ccccc1 (centres undefined) = 10.07
CCC(C)(C)C(=O)C(=O)N1CCCCC1C(=O)OCCCc1cc(OC)c(OC)c(OC)c1 (centres undefined) = 7.10
COc1cc(C(=O)C(=O)N2CCCCC2C(=O)OC(CCCc2ccccc2)CCCc2ccccc2)cc(OC)c1OC (centres undefined) = 9.21
CC(C)(C)C(=O)C(=O)N1CCCCC1C(=O)OC(CCCc1ccccc1)CCCc1ccccc1 (centres undefined) = 10.07

Hey, can you go through the list below and give me pEC50 for every item?
1. CCC(C)(C)C(=O)C(=O)N1CCCCC1C(=O)OC(CCCc1ccccc1)CCCc1ccccc1 (centres undefined)
2. CCC(C)(C)C(=O)C(=O)N1CCCCC1C(=O)OCCCCc1ccc(OC)cc1 (centres undefined)
3. CCC(C)(C)C(=O)C(=O)N1CCCCC1C(=O)OC(CCCc1ccccc1)CCc1ccc(OC)cc1 (centres undefined)
4. CCC(C)(C)C(=O)C(=O)N1CCCCC1C(=O)OCCCc1ccccc1 (centres undefined)
5. CCC(C)(C)C(=O)C(=O)N1CCCCC1C(=O)OCCC(c1ccccc1)c1ccccc1 (centres undefined)
6. CCOC(=O)C1CCCCN1C(=O)C(=O)C(C)(C)CC (centres undefined)

Reply:
[8.30, 7.37, 9.77, 6.52, 10.54, 5.30]

Hey, can you go through the list below and give me pEC50 for every item?
1. CCC(C)(C)C(=O)C(=O)N1CCCCC1C(=O)OC(CCc1ccccc1)CCc1ccccc1 (centres undefined)
2. COc1ccc(CCCCOC(=O)C2CCCCN2C(=O)C(=O)C(C)(C)C)cc1 (centres undefined)
3. O=C(C(=O)N1CCCCC1C(=O)OC(CCCc1ccccc1)CCCc1ccccc1)c1ccccc1 (centres undefined)

Reply:
10.80
11.70
9.82
